molecular target: F508delCFTR cell surface expression in CFBE41o-F508delCFTR-HRP cells (Homo sapiens, UniProt P13569, DEL508-508); construct: fused on or other part: Horseradish peroxidase (HRP) reporter inserted in the fourth exofacial (extracellular) loop of CFTR; expression is doxycycline-inducible; assay: Cell Surface Expression-Horse Radish Peroxidase (CSE-HRP) Assay; details: CFBE41o-F508delCFTR-HRP cells, 18-24 hours at 33° C., 8-point curve, highest concentration 20 μM
Sequence (P13569 with tags, fused parts or gaps DEL508-508 limits assumed): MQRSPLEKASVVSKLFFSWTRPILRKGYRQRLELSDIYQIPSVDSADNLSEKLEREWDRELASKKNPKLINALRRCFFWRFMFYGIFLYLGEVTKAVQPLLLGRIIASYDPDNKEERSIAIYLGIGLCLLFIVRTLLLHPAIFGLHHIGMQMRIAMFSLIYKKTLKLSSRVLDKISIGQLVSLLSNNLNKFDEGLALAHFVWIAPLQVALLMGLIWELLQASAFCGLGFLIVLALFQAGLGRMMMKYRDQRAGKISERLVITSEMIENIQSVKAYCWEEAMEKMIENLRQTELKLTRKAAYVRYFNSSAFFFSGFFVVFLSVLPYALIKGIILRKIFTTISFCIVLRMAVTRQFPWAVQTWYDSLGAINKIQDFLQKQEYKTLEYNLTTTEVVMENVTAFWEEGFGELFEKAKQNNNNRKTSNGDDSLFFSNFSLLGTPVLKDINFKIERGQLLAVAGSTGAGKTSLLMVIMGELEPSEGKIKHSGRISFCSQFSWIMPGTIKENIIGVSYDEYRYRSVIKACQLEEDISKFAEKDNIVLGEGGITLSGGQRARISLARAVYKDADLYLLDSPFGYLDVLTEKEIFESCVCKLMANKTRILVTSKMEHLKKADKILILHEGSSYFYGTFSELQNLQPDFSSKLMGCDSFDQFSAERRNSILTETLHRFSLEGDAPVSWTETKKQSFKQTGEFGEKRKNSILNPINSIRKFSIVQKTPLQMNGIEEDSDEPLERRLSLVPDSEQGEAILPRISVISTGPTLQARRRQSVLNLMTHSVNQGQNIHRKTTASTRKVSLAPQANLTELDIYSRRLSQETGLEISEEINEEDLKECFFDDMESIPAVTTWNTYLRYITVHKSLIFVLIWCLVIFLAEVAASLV
Sequence (P13569 919-1480 limits assumed, stated change not applied): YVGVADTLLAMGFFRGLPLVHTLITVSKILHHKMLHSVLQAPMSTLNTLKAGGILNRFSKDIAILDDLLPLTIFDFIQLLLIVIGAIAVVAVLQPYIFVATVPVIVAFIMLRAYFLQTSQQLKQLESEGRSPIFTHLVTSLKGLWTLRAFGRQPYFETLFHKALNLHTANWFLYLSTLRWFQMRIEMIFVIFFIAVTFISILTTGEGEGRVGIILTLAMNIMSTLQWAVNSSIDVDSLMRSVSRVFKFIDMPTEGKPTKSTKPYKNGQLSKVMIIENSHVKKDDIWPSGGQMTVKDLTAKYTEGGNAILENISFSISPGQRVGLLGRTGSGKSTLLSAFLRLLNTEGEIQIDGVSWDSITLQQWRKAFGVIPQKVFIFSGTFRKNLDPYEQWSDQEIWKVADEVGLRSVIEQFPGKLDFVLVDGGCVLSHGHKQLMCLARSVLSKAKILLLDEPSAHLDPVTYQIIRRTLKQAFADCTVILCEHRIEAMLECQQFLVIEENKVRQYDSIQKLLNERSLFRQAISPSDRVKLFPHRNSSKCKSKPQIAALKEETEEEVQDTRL
Listed here are compounds together with their documented EC50.

| compound | EC50 |
| --- | --- |
| COc1ccc2c(c1)O[C@@H](c1ccc(C(=O)O)cc1)C[C@H]2NC(=O)[C@]1(C)COc2cc3c(cc21)OC(F)(F)O3 | 5.75 µM |
| CC1(C(=O)N[C@@H]2C[C@H](c3cccc(C(=O)O)c3)Oc3ccccc32)COc2cc3c(cc21)OC(F)(F)O3 (stereo partly drawn) | 1.26 µM |
| C[C@]1(C(=O)N[C@@H]2C[C@H]([C@H]3CC[C@H](C(=O)N4CCOCC4)CC3)Oc3cc(OC(F)(F)F)ccc32)COc2cc3c(cc21)OC(F)(F)O3 | 0.06 µM |
| CC(C)(CO)[C@@H]1Cc2cc(NC(=O)[C@@]3(C)COc4cc5c(cc43)OC(F)(F)O5)c(F)cc2N1C[C@@H](O)CO (single isomer, unassigned) | 0.96 µM |
| COc1ccc2c(c1)O[C@@H](c1ccc(C(=O)NC(CO)c3ccccc3OC)cn1)C[C@H]2NC(=O)[C@@]1(C)COc2cc3c(cc21)OC(F)(F)O3 (stereo partly drawn) | 0.02 µM |
| COc1ccc2c(c1)O[C@@H](C1CCC(C(=O)O)CC1)C[C@H]2NC(=O)[C@]1(C)COc2cc3c(cc21)OC(F)(F)O3 (stereo partly drawn) | 7.54 µM |

---

target: F508delCFTR cell surface expression in CFBE41o-F508delCFTR-HRP cells (Homo sapiens, UniProt P13569, DEL508-508); construct: fused on or other part: Horseradish peroxidase (HRP) reporter inserted in the fourth exofacial (extracellular) loop of CFTR; expression is doxycycline-inducible; test: Cell Surface Expression-Horse Radish Peroxidase (CSE-HRP) Assay; conditions: CFBE41o-F508delCFTR-HRP cells, 18-24 hours at 33° C., 8-point curve, highest concentration 20 μM
pEC50: −log10 of the molar value.
Listed here are compounds together with their documented pEC50.
metric: pEC50

| compound | value-prefix | experimental-value |
| --- | --- | --- |
| C[C@]1(C(=O)N[C@H]2C[C@@H](C3CCNCC3)Oc3cc(OC(F)(F)F)ccc32)COc2cc3c(cc21)OC(F)(F)O3 [Example 185] | = | 5.47 |
| CC1(C)OC[C@H](CN2CCC([C@@H]3C[C@H](NC(=O)[C@@]4(C)COc5cc6c(cc54)OC(F)(F)O6)c4ccc(OC(F)(F)F)cc4O3)CC2)O1 [Example 226] | < | 4.70 |
| C[C@]1(C(=O)Nc2cc3cc(C4(CO)CCOCC4)n(C[C@@H](O)CO)c3cc2F)COc2cc3c(cc21)OC(F)(F)O3 [Example 170] | = | 5.90 |
| CCOC(=O)[C@H]1CC[C@H]([C@@H]2C[C@H](NC(=O)[C@@]3(C)COc4cc5c(cc43)OC(F)(F)O5)c3ccc(OC)cc3O2)CC1 [Example 152] | = | 6.09 |
| COc1ccc2c(c1)O[C@@H](c1ccc(C(=O)N(CCO)Cc3ccccc3)cn1)C[C@H]2NC(=O)[C@@]1(C)COc2cc3c(cc21)OC(F)(F)O3 [Example 210] | = | 7.52 |
| C[C@]1(C(=O)N[C@@H]2C[C@H]([C@H]3CC[C@H](C(=O)N(CCO)Cc4ccccc4)CC3)Oc3cc(OC(F)(F)F)ccc32)COc2cc3c(cc21)OC(F)(F)O3 [Example 264] | = | 7.22 |

---

target: F508delCFTR cell surface expression in CFBE41o-F508delCFTR-HRP cells (Homo sapiens, UniProt P13569, DEL508-508); construct: fused on or other part: Horseradish peroxidase (HRP) reporter inserted in the fourth exofacial (extracellular) loop of CFTR; expression is doxycycline-inducible; experiment: Cell Surface Expression-Horse Radish Peroxidase (CSE-HRP) Assay; settings: CFBE41o-F508delCFTR-HRP cells, 18-24 hours at 33° C., 8-point curve, highest concentration 20 μM
Listed here are molecules together with their documented log10 of EC50.
metric: log10 of EC50 (log10 of the value in µM)

| molecule | metric | experimental-value |
| --- | --- | --- |
| C[C@]1(C(=O)N[C@@H]2C[C@H](c3cccc(C(=O)O)c3)Oc3ccccc32)COc2cc3c(cc21)OC(F)(F)O3 [Example 22] | log10 of EC50 | -0.19 |
| COC(=O)c1cccc([C@H]2C[C@@H](NC(=O)C3(C)COc4cc5c(cc43)OC(F)(F)O5)c3ccc(OC)cc3O2)c1 (stereo partly drawn) [Example 10] | log10 of EC50 | -0.39 |
| C[C@]1(C(=O)N[C@@H]2C[C@H](C3CCNCC3)Oc3cc(OC(F)(F)F)ccc32)COc2cc3c(cc21)OC(F)(F)O3 [Example 182] | log10 of EC50 | 0.23 |
| C[C@]1(C(=O)N[C@@H]2C[C@H]([C@H]3CC[C@H](C(=O)N4CCOCC4CO)CC3)Oc3cc(OC(F)(F)F)ccc32)COc2cc3c(cc21)OC(F)(F)O3 (stereo partly drawn) [Example 257] | log10 of EC50 | -1.15 |
| C[C@]1(C(=O)N[C@@H]2C[C@H](C3(C(=O)N(CCO)CCO)CC3)Oc3cc(OC(F)(F)F)ccc32)COc2cc3c(cc21)OC(F)(F)O3 [Example 279] | log10 of EC50 | -0.25 |

---

Listed here are molecules together with their documented Maximum % activity (%).
Target: F508delCFTR cell surface expression in CFBE41o-F508delCFTR-HRP cells (Homo sapiens, UniProt P13569, DEL508-508)
Construct: fused on or other part: Horseradish peroxidase (HRP) reporter inserted in the fourth exofacial (extracellular) loop of CFTR; expression is doxycycline-inducible
Assay: Cell Surface Expression-Horse Radish Peroxidase (CSE-HRP) Assay
Type: cell-based
Conditions: maximum at any tested concentration, normalized to on-plate positive control (3 μM)
Procedure: Cell Surface Expression-Horse Radish Peroxidase (CSE-HRP) Assay: A cellular assay for measuring the F508delCFTR cell surface expression after correction with test compounds was developed in human lung derived epithelial cell line (CFBE41o-) (Veit G et al, (2012) Mol Biol Cell. 23(21): 4188-4202). […] The raw counts from the experiment are analyzed using Accelrys® Assay Explorer v3.3. […]

| molecule | Maximum % activity (%) |
| --- | --- |
| COc1ccc2c(c1)O[C@@H](c1cccc(C(=O)O)c1)C[C@H]2NC(=O)[C@]1(C)COc2cc3c(cc21)OC(F)(F)O3 | 72% |
| CC(C)(C)OC(=O)CN1CCC([C@@H]2C[C@H](NC(=O)[C@@]3(C)COc4cc5c(cc43)OC(F)(F)O5)c3ccc(OC(F)(F)F)cc3O2)CC1 | 60% |
| COc1ccc2c(c1)O[C@@H](c1cccc(C(=O)O)c1)C[C@H]2NC(=O)[C@@]1(C)COc2cc3c(cc21)OC(F)(F)O3 | 187% |
| C[C@]1(C(=O)N[C@H]2C[C@@H](C3CCNCC3)Oc3cc(OC(F)(F)F)ccc32)COc2cc3c(cc21)OC(F)(F)O3 | 31% |
| Cc1ccc(NC(=O)[C@@]2(C)COc3cc4c(cc32)OC(F)(F)O4)nc1-c1cccc(C#N)c1 | 95% |
| CC1(C(=O)Nc2nc(-c3ccc(C#N)cc3)cs2)COc2cc3c(cc21)OC(F)(F)O3 (stereo not shown) | 41% |
| COc1ccc2c(c1)O[C@@H](c1ccc(C(=O)O)cc1)C[C@H]2NC(=O)[C@]1(C)COc2cc3c(cc21)OC(F)(F)O3 | 91% |
| COc1ccc2c(c1)O[C@@H](c1ccc(C(=O)NCCS(C)(=O)=O)cn1)C[C@H]2NC(=O)[C@@]1(C)COc2cc3c(cc21)OC(F)(F)O3 | 115% |
| C[C@]1(C(=O)N[C@@H]2C[C@H](C3CCC(CO)(C(=O)O)CC3)Oc3cc(OC(F)(F)F)ccc32)COc2cc3c(cc21)OC(F)(F)O3 (stereo partly shown) | 138% |
| COc1cc2c(cc1Br)[C@H](NC(=O)[C@@]1(C)COc3cc4c(cc31)OC(F)(F)O4)C[C@H]([C@H]1CC[C@H](C(=O)O)CC1)O2 | 189% |
| COc1ccc2c(c1)O[C@@H](c1ccc(C(=O)NCCO)cn1)C[C@H]2NC(=O)[C@@]1(C)COc2cc3c(cc21)OC(F)(F)O3 | 114% |
| COc1ccc2c(c1)O[C@@H](c1ccc(C(=O)O)cc1)C[C@H]2NC(=O)[C@@]1(C)COc2cc3c(cc21)OC(F)(F)O3 | 150% |
| CCOC(=O)C1([C@H]2C[C@@H](NC(=O)[C@@]3(C)COc4cc5c(cc43)OC(F)(F)O5)c3ccc(OC(F)(F)F)cc3O2)CC1 | 122% |
| C[C@]1(C(=O)Nc2cc(-c3ccccc3)cn(-c3ccc(C(=O)O)cc3)c2=O)COc2cc3c(cc21)OC(F)(F)O3 | 71% |
| COc1ccc2c(c1)O[C@@H](c1ccc(C(=O)N3CCN(S(N)(=O)=O)CC3)cn1)C[C@H]2NC(=O)[C@@]1(C)COc2cc3c(cc21)OC(F)(F)O3 | 112% |
| C[C@]1(C(=O)N[C@@H]2C[C@H]([C@H]3CC[C@@H](C(=O)O)CC3)Oc3cc(OC(F)(F)F)ccc32)COc2cc3c(cc21)OC(F)(F)O3 | 120% |
| COc1ccc2c(c1)O[C@@H](c1ccc(C(=O)N3CC(O)(CCO)C3)cn1)C[C@H]2NC(=O)[C@@]1(C)COc2cc3c(cc21)OC(F)(F)O3 | 111% |
| C[C@]1(C(=O)Nc2cc3cc(C4(CO)CCC4)[nH]c3cc2F)COc2cc3c(cc21)OC(F)(F)O3 | 210% |
| CC(C)(CO)c1cc2cc(NC(=O)[C@@]3(C)COc4cc5c(cc43)OC(F)(F)O5)c(F)cc2n1C[C@@H](O)CC#N | 108% |
| COc1ccc2c(c1)O[C@@H](c1ccc(C(=O)N3C[C@@H](O)[C@H](O)C3)cn1)C[C@H]2NC(=O)[C@@]1(C)COc2cc3c(cc21)OC(F)(F)O3 | 116% |
| C[C@]1(C(=O)Nc2ccc(N3CCC(O)C3)nc2)COc2cc3c(cc21)OC(F)(F)O3 (stereo partly shown) | 28% |
| Cc1ccc(NC(=O)C2(C)COc3cc4c(cc32)OC(F)(F)O4)nc1-c1cccc(C(N)=O)c1 (stereo not shown) | 105% |
| C[C@]1(C(=O)N[C@@H]2C[C@H](c3ccc(C(=O)O)cc3)Oc3ccccc32)CCc2cc3c(cc21)OC(F)(F)O3 | 50% |
| COc1ccc2c(c1)O[C@@H](c1ccc(C(=O)NCC(C)O)cn1)C[C@H]2NC(=O)[C@@]1(C)COc2cc3c(cc21)OC(F)(F)O3 (stereo partly shown) | 110% |
| CC(C)(C)OC(=O)CN1CCC([C@H]2C[C@@H](NC(=O)[C@@]3(C)COc4cc5c(cc43)OC(F)(F)O5)c3ccc(OC(F)(F)F)cc3O2)CC1 | 189% |

Cited source for all entries: patent US9840513B2
